measured_on: hMC1-R (Homo sapiens)
Construct: expressed in transfected cells; host or cells: CHO-K1
Sequence (Q01726 whole entry): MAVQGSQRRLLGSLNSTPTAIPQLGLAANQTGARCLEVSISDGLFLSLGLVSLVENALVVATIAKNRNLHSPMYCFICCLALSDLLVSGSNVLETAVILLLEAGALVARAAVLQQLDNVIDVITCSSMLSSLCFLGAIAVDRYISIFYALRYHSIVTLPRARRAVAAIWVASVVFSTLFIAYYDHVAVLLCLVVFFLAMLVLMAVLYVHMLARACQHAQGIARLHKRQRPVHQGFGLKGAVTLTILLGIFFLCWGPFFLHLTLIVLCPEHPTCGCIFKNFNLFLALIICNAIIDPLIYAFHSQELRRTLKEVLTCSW
test_details: Radioligand binding assay, [125I]-NDP-α-MSH competition, CHO-K1 membranes
experimental_setup: Table 5; read-out: Ki hMC1-R
Bridge positions count the residues as written; N and C are the ends. Square brackets hold non-standard residues; d marks the D form. Peptide text beside a SMILES is read from it. Bip = N[C@@H](Cc1ccc(-c2ccccc2)cc1)C(=O)O; hArg = N=C(N)NCCCC[C@H](N)C(=O)O; Pen = CC(C)(S)[C@H](N)C(=O)O; Nle = CCCC[C@H](N)C(=O)O; GABA = NCCCC(=O)O; βAla = NCCC(=O)O
Label key: satisfied means Ki under 0.1 nM; not satisfied means Ki of 0.1 nM or more.

A selection of reference data follows.
## Task Hello, I'm reviewing records and need to know if Ki of CCOc1ccc(C[C@H]2NC(=O)[C@H](Cc3c[nH]cn3)NC(=O)[C@@H](NC(=O)[C@H](N)Cc3ccccc3)CSSC[C@H](C(=O)N[C@H](C(N)=O)[C@@H](C)O)NC(=O)CCNC(=O)[C@H](Cc3ccc(-c4ccccc4)cc3)NC(=O)[C@H](CCCCNC(=N)N)NC2=O)cc1 (H-[dF]CH[dY](Et)[hArg][Bip][βAla][dC]T-NH2; disulfide 2-8) is below 0.1 nM. Could you check?
## Result not satisfied

## Task Hello, I'm reviewing records and need to know if Ki of CCCC[C@H](NC(C)=O)C(=O)N[C@H]1CSSC[C@@H](C(N)=O)NC(=O)[C@@H](C)NC(=O)[C@H](Cc2c[nH]c3ccccc23)NC(=O)[C@H](CCCNC(=N)N)NC(=O)[C@@H](Cc2ccccc2)NC(=O)[C@H](Cc2c[nH]cn2)NC(=O)[C@@H](C)NC1=O (Ac-[Nle]C[dA]H[dF]RW[dA]C-NH2; disulfide 2-9) is below 0.1 nM. Could you check?
## Result not satisfied

## Task Hello, I'm reviewing records and need to know if Ki of C[C@@H](O)[C@H](NC(=O)[C@H]1CSSC[C@H](NC(=O)[C@H](N)Cc2ccccc2)C(=O)N[C@@H](Cc2c[nH]cn2)C(=O)N[C@H](Cc2ccccc2)C(=O)N[C@@H](CCCCNC(=N)N)C(=O)N[C@@H](Cc2ccc(-c3ccccc3)cc2)C(=O)NCCC(=O)N1)C(N)=O (H-[dF]CH[dF][hArg][Bip][βAla][dC]T-NH2; disulfide 2-8 (inferred)) is below 0.1 nM. Could you check?
## Result not satisfied

More entries:
## Task Hello, I'm reviewing records and need to know if Ki of CC(=O)N[C@H](CCCNC(=N)N)C(=O)N[C@H]1CSSC(C)(C)[C@@H](C(N)=O)NC(=O)CCCNC(=O)[C@H](Cc2c[nH]c3ccccc23)NC(=O)[C@H](CCCNC(=N)N)NC(=O)[C@@H](Cc2ccccc2)NC(=O)[C@H](Cc2c[nH]cn2)NC1=O (Ac-[dR]CH[dF]RW[GABA][Pen]-NH2; disulfide 2-8 (inferred)) is below 0.1 nM. Could you check?
## Result not satisfied

## Task Hello, I'm reviewing records and need to know if Ki of C[C@@H](O)[C@H](NC(=O)[C@H]1CSSC[C@H](NC(=O)[C@H](N)Cc2ccccc2)C(=O)N[C@@H](Cc2c[nH]cn2)C(=O)N[C@H](Cc2ccccc2)C(=O)N[C@@H](CCCNC(=N)N)C(=O)N[C@@H](Cc2c[nH]c3ccccc23)C(=O)NCCCC(=O)N1)C(N)=O (H-[dF]CH[dF]RW[GABA][dC]T-NH2; disulfide 2-8) is below 0.1 nM. Could you check?
## Result not satisfied

## Task Hello, I'm reviewing records and need to know if Ki of C[C@@H](O)[C@H](NC(=O)[C@H]1CSSC[C@H](NC(=O)[C@H](N)Cc2ccccc2)C(=O)N[C@@H](Cc2c[nH]cn2)C(=O)N[C@H](Cc2ccccc2)C(=O)N[C@@H](CCCCNC(=N)N)C(=O)N[C@@H](Cc2c[nH]c3ccccc23)C(=O)NCCC(=O)N1)C(N)=O (H-[dF]CH[dF][hArg]W[βAla][dC]T-NH2; disulfide 2-8) is below 0.1 nM. Could you check?
## Result not satisfied

## Task Hello, I'm reviewing records and need to know if Ki of CCOc1ccc(C[C@H]2NC(=O)[C@H](Cc3c[nH]cn3)NC(=O)[C@@H](NC(=O)[C@H](N)Cc3ccccc3)CSSC[C@H](C(=O)N[C@H](C(N)=O)[C@@H](C)O)NC(=O)CCNC(=O)[C@H](Cc3c[nH]c4ccccc34)NC(=O)[C@H](CCCCNC(=N)N)NC2=O)cc1 (H-[dF]CH[dY](Et)[hArg]W[βAla][dC]T-NH2; disulfide 2-8) is below 0.1 nM. Could you check?
## Result satisfied

## Task Hello, I'm reviewing records and need to know if Ki of CCCC[C@H](N)C(=O)N[C@H]1CSSC[C@@H](C(N)=O)NC(=O)CCCNC(=O)[C@H](Cc2c[nH]c3ccccc23)NC(=O)[C@H](CCCNC(=N)N)NC(=O)[C@@H](Cc2ccccc2)NC(=O)[C@H](Cc2c[nH]cn2)NC1=O (H-[Nle]CH[dF]RW[GABA]C-NH2; disulfide 2-8) is below 0.1 nM. Could you check?
## Result satisfied
